B1: TPR t1 (parent)
chain: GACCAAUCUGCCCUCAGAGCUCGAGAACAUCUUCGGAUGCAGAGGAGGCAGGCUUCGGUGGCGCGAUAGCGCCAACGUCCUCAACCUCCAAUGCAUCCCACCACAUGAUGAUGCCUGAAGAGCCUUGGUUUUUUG

Variants of: B1
experimentalDetails: polymerase ribozyme fitness, log enrichment relative to wild type (log ratio); higher = more active; in vitro selection for triplet polymerase activity
propertyMeasured: polymerase ribozyme fitness (log ratio)

mutationList	endpointResult
C73A A103G G110A	-6.42
U7G U55A G58A G63U C98A A105U G120A	-5.94
G51U C82U	-1.77
G71A U116A	-3.85
C20U C85A	-3.94
C22A U112A C114G	-1.84
C8A A18C G60U	-1.62
C20U G52U G61U U87C	-1.96
A2G C82A A111U	-4.1
C11U G17U G48A C114G	-6.05
C40G C102U U116G C124U	-4.94
C70U C85A	-2.12
C72U C97U	-1.45
A46U G117C	-1.89
G25C G35A G44C C114G	-5.95
C3A C11G G48U C114A	-2.07
G61U C86A A103C	-5.4
G19U G45U A111C	-4.74
A24G C115A	-1.25
U33A C56A	-4.57
C72G U96C	-1.25
A5U U54G	-0.237
